Source of measurements: BigSolDB 2.1

# Condition details: in NMP, 308.2 K
Property label: solubility (mole fraction)
Just the number, please, no unit after it.

// COc1ccc2c3c1O[C@H]1[C@@H](O)C=C[C@H]4[C@@H](C2)N(C)CC[C@@]341.O=P(O)(O)O : solubility (mole fraction) value = 0.00249

----------
# Condition details: in isopropanol, 298.2 K
Property label: solubility (mole fraction)

The compound identified as COc1ccc2c3c1O[C@H]1[C@@H](O)C=C[C@H]4[C@@H](C2)N(C)CC[C@@]341.O=P(O)(O)O registered its solubility (mole fraction) at 2.52e-05

----------
# Condition details: in NMP, 313.2 K
Property label: solubility (mole fraction)
Reply with just the number.

Entry COc1ccc2c3c1O[C@H]1[C@@H](O)C=C[C@H]4[C@@H](C2)N(C)CC[C@@]341.O=P(O)(O)O , solubility (mole fraction) reported as 0.00259
